Biological target: T1, human Trop2 on cells (human, UniProt P09758 27-323)
T1 construct: whole, on cells; also called hTrop2; 293T-human Trop2 cells
T1 sequence (looked up): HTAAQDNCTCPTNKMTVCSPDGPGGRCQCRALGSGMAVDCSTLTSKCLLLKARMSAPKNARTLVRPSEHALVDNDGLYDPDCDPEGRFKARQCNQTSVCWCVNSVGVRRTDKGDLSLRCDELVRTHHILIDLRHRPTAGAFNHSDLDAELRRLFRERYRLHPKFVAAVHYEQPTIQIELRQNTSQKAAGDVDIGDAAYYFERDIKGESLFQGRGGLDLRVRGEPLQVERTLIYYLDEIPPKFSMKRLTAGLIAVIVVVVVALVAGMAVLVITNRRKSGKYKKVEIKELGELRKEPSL
Experiment: flow cytometry on BxPC-3 tumor cells
measurement_kind: Maximum MFI value (MFI)
Could you give me the number in MFI? Just the number is fine.

For PR001130 (antibody, human IgG1, kappa, V domains shown, fully human IgG1/kappa; also called antibody No. (2)) VH: QVQLQESGPGLVKPSGTLSLTCAVSGDSISSHNWWSWVRQPPGKGLEWIGEIYHSGITSYNPSLKSRVTISVDKSKNQFSLKLNSVTAADTAMYYCARGSGVISYFDYWGQGTLVTVSS VL: DIQMTQSPSTLSASVGDRVTITCRASQSIGNWLAWYQQKPGKAPKLLIYKASSLESGVPSRFSGSGSGTEFTLTISSLQPDDFATYYCQQYDSYSPITFGQGTRLEIKR the binder record lists Maximum MFI value as 9960

Given item PR001162 (antibody, human IgG1, kappa, V domains shown, fully human IgG1/kappa; also called antibody No. (23)) VH: QVQLVESGGGVVQPGTSLRLSCVASGFTFSNDGMHWVRQAPGMGLEWVAIMWFDGGSKYYADSVKGRFTISRDNSKNTLYLQMNNLRAEDTAVYYCARDHPHYLGSGSFDYWGQGTLVTVSS VL: EIVLTQSPATLSLSPGERATLSCRASQSVSSYLAWYQQKPGQAPRLLIYDASNRATGIPARFSGSGSGTDFTLTISSLQAEDVAVYYCQQYYSTPYTFGQGTKLEIKR , the value recorded as its Maximum MFI value is 9110

Documented Maximum MFI value of PR001166 (antibody, human IgG1, kappa, V domains shown, fully human IgG1/kappa; also called antibody No. (27)) VH: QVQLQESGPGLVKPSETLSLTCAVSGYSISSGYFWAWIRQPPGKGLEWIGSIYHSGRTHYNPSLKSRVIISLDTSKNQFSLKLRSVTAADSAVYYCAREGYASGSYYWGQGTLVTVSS VL: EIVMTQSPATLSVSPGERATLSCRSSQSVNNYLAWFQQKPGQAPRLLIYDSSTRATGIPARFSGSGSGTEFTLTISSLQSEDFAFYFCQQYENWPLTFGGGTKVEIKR : 8390

Form field Maximum MFI value, entry PR001142 (antibody, human IgG1, kappa, V domains shown, fully human IgG1/kappa; also called antibody No. (9)) VH: QVQLQESGPGLVKPSGTLSLTCAVSGDSISSNNWWSWVRQPPGKGLEWIGEIYPGGNPNYNPSLKSRVTISVDKSKNQFSLKLNSVTAADTAVYYCARGSGVISYFDYWGQGTLVTVSS VL: DIQMTQSPSTLSASVGDRVTITCRASQSIGHWLAWYQQKPGKAPKLLIYKASSLESGVPSRFRGSGSGTEFTLTISSLQPDDFATYYCQQYSSYSPITFGQGSRLEIKR : 10800

Maximum MFI value in this record for comparative example 2 antibody Tab (hRS7) (antibody, human IgG1, kappa, V domains shown, prepared on the basis of sacituzumab govitecan (ChemPartner, #T07-001); naked antibody) VH: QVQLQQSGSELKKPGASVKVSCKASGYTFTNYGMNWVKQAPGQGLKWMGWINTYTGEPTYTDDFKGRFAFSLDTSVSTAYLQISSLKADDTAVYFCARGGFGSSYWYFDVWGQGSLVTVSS VL: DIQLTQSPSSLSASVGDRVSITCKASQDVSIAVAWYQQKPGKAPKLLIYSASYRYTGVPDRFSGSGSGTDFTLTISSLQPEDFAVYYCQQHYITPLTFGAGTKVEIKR : 8730

The binder identified as PR001128 (antibody, human IgG1, kappa, V domains shown, fully human IgG1/kappa; also called antibody No. (1)) VH: QVQLQESGPGLVKPSGTLSLTCAVSGGSISSSNWWSWVRQPPGKGLEWIGEIFHSGTTYYNPSLKSRVTILVDKSKNQFSLKLSSVTAADTAVYYCARDNTKSWDHFDHWGQGTLVTVSS VL: EIVLTQSPATLSLSPGERATLSCRASQSVGSYLAWYQQKPGQAPSLLIYDASNRATGIPARFSGSGSGTDFTLTISSLEPEDFAVYYCQQRTNWYTFGQGTKLEIKR registered its Maximum MFI value at 8410

Maximum MFI value for PR001133 (antibody, human IgG1, kappa, V domains shown, fully human IgG1/kappa; also called antibody No. (5)) VH: QVNLVESGGGVVQPGRSLKLSCAASGFTFSSYGMHWVRQAPGKGLEWVALIWSDGTNRYYTESVKGRFTISRDNSKNTLSLQMKSLRAEDTAVYYCAKDGWGTYGEYFQHWGQGTLVTVSS VL: DIQMTQSPSSLSASVGDRVTITCRASQNINSYLHWYQQKPGKAPKLLIYAASSLQSGVPSRFSGSGSGTDFTLTISSLQPEDFAIYYCQQSYSIPPITFGQGTRLEIKR is 8950
